TARGET OF ASSAY: PI3Kα (Homo sapiens, UniProt P42336, H1047R)
Sequence (P42336 whole entry H1047R): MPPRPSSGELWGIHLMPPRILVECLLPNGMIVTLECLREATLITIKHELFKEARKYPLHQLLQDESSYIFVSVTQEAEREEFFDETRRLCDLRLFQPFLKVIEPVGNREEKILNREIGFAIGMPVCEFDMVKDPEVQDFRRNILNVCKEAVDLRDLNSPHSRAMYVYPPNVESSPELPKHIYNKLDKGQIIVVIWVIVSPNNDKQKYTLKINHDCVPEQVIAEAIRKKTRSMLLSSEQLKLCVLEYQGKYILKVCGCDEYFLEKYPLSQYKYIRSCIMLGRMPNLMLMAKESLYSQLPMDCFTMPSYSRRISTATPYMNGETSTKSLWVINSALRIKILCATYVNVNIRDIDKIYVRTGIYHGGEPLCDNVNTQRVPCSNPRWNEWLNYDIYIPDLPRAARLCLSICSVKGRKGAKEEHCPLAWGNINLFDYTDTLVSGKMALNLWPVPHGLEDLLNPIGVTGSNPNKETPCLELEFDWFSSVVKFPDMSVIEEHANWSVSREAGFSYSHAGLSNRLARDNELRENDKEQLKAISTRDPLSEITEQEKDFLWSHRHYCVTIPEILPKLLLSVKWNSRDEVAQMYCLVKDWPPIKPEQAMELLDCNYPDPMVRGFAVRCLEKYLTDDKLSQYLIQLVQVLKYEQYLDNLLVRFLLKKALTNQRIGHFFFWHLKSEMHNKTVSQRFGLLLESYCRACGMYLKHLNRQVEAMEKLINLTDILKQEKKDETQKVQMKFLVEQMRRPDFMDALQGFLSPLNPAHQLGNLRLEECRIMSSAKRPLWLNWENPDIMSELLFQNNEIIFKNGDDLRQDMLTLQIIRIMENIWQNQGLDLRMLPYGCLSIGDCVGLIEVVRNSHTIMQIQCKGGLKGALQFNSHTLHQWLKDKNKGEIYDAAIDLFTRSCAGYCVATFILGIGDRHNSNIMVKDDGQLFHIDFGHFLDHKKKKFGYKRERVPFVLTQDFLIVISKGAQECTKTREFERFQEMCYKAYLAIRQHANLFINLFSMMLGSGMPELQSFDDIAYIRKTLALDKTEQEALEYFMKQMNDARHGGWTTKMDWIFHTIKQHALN
Sequence (P27986 whole entry partner): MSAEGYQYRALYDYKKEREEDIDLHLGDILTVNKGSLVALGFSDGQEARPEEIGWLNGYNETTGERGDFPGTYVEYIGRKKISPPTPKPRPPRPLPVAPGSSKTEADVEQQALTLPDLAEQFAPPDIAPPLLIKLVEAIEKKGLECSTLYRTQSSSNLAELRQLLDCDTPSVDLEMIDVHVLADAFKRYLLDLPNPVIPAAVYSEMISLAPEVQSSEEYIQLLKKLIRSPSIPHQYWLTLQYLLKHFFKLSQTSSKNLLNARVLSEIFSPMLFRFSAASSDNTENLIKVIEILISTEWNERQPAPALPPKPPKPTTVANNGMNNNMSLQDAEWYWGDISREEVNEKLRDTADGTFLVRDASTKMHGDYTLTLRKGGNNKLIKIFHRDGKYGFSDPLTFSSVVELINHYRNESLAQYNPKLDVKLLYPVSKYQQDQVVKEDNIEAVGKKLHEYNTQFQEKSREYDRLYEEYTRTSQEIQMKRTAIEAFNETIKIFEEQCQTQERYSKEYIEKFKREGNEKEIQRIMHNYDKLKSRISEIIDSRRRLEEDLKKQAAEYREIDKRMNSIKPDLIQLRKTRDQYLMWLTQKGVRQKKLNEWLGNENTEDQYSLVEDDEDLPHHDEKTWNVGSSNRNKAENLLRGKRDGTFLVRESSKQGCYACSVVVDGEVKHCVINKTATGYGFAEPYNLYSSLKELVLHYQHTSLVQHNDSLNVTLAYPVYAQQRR
ASSAY REMARKS: ADP-Glo IC50 assay
RECORDED CONDITIONS: class symbols; key not given

{"COMPOUND": "O=C(O)CCCCCCCCCNC(=O)c1cnc(Nc2cc(F)ccc2Cl)c(NC(=O)c2csc3ccccc23)c1", "TARGET OF ASSAY": "PI3Kα (Homo sapiens, UniProt P42336, H1047R)", "IC50": "< 100 nM"}
{"COMPOUND": "O=C1CCC(N2Cc3cc(C(=O)NCCCCCCCCNC(=O)c4cc(NC(=O)c5cccc(C(F)(F)F)c5)c5c(c4)C(=O)N[C@@H]5c4cc(F)ccc4Cl)ccc3C2=O)C(=O)N1 (stereo partly shown)", "TARGET OF ASSAY": "PI3Kα (Homo sapiens, UniProt P42336, H1047R)", "IC50": "1000 to 10000 nM"}
{"COMPOUND": "O=C1CCC(N2Cc3cc(C#CCNC(=O)c4cc(NC(=O)c5cc(F)cc(C(F)(F)F)c5)c5c(c4)C(=O)N[C@H]5c4cc(F)ccc4Cl)ccc3C2=O)C(=O)N1 (stereo partly shown)", "TARGET OF ASSAY": "PI3Kα (Homo sapiens, UniProt P42336, H1047R)", "IC50": "< 100 nM"}
{"COMPOUND": "Cc1ccccc1Nc1ncc(C(=O)NCCCCCCC(=O)NCc2ccc3c(c2)CN(C2CCC(=O)NC2=O)C3=O)cc1NC(=O)c1csc2ccccc12 (stereo not shown)", "TARGET OF ASSAY": "PI3Kα (Homo sapiens, UniProt P42336, H1047R)", "IC50": "100 to 500 nM"}
